Test system: MIWI (PIWIL1) piRISC loaded with piRNA #2 (30 nt);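 also: 1 nM active piRISC with 0.1 nM target library at 33 °C single turnover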
Test: pre-steady-state target cleavage rate (min^-1); MIWI and MILI are mouse PIWI proteins and EfPiwi is from a freshwater sponge; tags in brackets are library labels; higher = faster piRNA-guided slicing of the target;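 also: 1 nM active piRISC with 0.1 nM target library at 33 °C single turnover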
Conditions: guide: piRNA #2 5'p-UUAGGUAACCCAGUAGAUCCAGAGGAAUUC; auxiliary factor: 500 nM mouse GTSF1
The full ranking holds about 5,500 sequences; the median of “pre-steady-state target cleavage rate” is about 0.1, and the highest 2% start at about 0.64. The full list was thinned out, with the highest values kept by preference.
Recorded pre-steady-state target cleavage rate by entry
Metric Name: pre-steady-state target cleavage rate

CUUAAGGUCUGCAUCUAGUGGGUUACCUAA    0.0327
CUUAUCCUCUGGAUAUACUGGGUUACCUAA    0.688
CAAUUGCUCUGGAUCUACUGGGUUACCUUA    0.212
CUAUUCCUCUCGAUGUACUGGGUUACCUAA    0.636
CUUAUCCUCUCGAUGUACUGGGUUACCUAA    0.498
CUUUUCCUCAGGAUCUACUGGGUUAGCUAA    0.133
CAAAAGCUCUGGAUCUACUGGGUUACCUAA    0.105
CAAUUCCUCUGGAUACUACUGGGUUACCUAA    0.519
CUAUUCCUCUGGAUACUACUGGGUUACCUAA    0.422
CUUAUCCUCUGGAUACUACUGGGUUACCUAA    0.419
CAAUUCCUCAGGAUCUACUGGGUAACCUAA    0.336
CUUAACCUCUCGAUGUACUGGGUUACCUAA    0.421
CAAUUCCUCUGGAUGUACUGGGUUACCUAA    0.578
